test system: PPARg homodimer (NR concentration 180 nM); experiment: PBM binding z-score (relative to random genomic background probes); higher = stronger binding; sequences stand for … in GC…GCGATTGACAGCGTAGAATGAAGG
Response key: criterion met means PBM binding z-score >= 2; criterion not met means PBM binding z-score < 2.

Worked examples follow.
INSERT INTO measurements (sequence_data, class) VALUES
  ('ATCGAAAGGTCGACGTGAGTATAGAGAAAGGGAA', 'criterion not met'),
  ('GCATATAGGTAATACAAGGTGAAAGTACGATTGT', 'criterion not met'),
  ('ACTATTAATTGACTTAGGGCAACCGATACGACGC', 'criterion not met'),
  ('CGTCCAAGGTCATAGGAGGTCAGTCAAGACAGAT', 'criterion met'),
  ('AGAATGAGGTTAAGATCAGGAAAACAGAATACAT', 'criterion not met');

stdin: Kindly determine if PBM binding z-score recorded for `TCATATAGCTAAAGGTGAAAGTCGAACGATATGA` is above or exactly 2.
stdout: criterion not met

stdin: Kindly determine if PBM binding z-score recorded for `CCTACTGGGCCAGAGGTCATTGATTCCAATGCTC` is above or exactly 2.
stdout: criterion met

stdin: Kindly determine if PBM binding z-score recorded for `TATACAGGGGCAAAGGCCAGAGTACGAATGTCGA` is above or exactly 2.
stdout: criterion not met

stdin: Kindly determine if PBM binding z-score recorded for `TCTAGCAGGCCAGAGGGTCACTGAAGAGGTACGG` is above or exactly 2.
stdout: criterion not met

stdin: Kindly determine if PBM binding z-score recorded for `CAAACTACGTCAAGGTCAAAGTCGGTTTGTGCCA` is above or exactly 2.
stdout: criterion met

stdin: Kindly determine if PBM binding z-score recorded for `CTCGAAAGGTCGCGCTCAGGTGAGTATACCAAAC` is above or exactly 2.
stdout: criterion met

stdin: Kindly determine if PBM binding z-score recorded for `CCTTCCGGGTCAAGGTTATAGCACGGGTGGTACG` is above or exactly 2.
stdout: criterion met

stdin: Kindly determine if PBM binding z-score recorded for `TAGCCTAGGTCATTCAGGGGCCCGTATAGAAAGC` is above or exactly 2.
stdout: criterion not met

stdin: Kindly determine if PBM binding z-score recorded for `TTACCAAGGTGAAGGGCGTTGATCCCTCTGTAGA` is above or exactly 2.
stdout: criterion not met

stdin: Kindly determine if PBM binding z-score recorded for `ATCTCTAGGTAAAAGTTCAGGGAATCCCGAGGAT` is above or exactly 2.
stdout: criterion not met
